system: Nitrilase isolated from Acinetobacter sp. AK 226 strain; test: Substrate specificity of purified nitrilase (hydrolysis of nitriles to organic acid and ammonia)
experimental-readout: Relative activity

# compound, system, value
data = [
    ("CC(C)CCC#N", "Nitrilase isolated from Acinetobacter sp. AK 226 strain", "8.12 ×10^2%"),
    ("N#Cc1ccc(F)cc1", "Nitrilase isolated from Acinetobacter sp. AK 226 strain", "83.9 ×10^2%"),
    ("CC#N", "Nitrilase isolated from Acinetobacter sp. AK 226 strain", "45.3 ×10^2%"),
    ("N#CC(N)c1ccccc1 (centres unmarked)", "Nitrilase isolated from Acinetobacter sp. AK 226 strain", "0.000 ×10^2%"),
    ("N#Cc1cccc([N+](=O)[O-])c1", "Nitrilase isolated from Acinetobacter sp. AK 226 strain", "47.6 ×10^2%"),
    ("CC(C#N)c1ccccc1 (centres unmarked)", "Nitrilase isolated from Acinetobacter sp. AK 226 strain", "0.534 ×10^2%"),
    ("Cc1cccc(C#N)c1", "Nitrilase isolated from Acinetobacter sp. AK 226 strain", "74.8 ×10^2%"),
    ("N#Cc1cccc(Cl)c1", "Nitrilase isolated from Acinetobacter sp. AK 226 strain", "68.9 ×10^2%"),
    ("N#CCCl", "Nitrilase isolated from Acinetobacter sp. AK 226 strain", "108 ×10^2%"),
    ("N#Cc1cccc(C#N)c1", "Nitrilase isolated from Acinetobacter sp. AK 226 strain", "80.7 ×10^2%"),
    ("CCCC#N", "Nitrilase isolated from Acinetobacter sp. AK 226 strain", "17.4 ×10^2%"),
    ("N#CCO [Hydroxyacetonitrile]", "Nitrilase isolated from Acinetobacter sp. AK 226 strain", "11.4 ×10^2%"),
    ("N#Cc1cccnc1", "Nitrilase isolated from Acinetobacter sp. AK 226 strain", "52.7 ×10^2%"),
    ("CCCCCC#N", "Nitrilase isolated from Acinetobacter sp. AK 226 strain", "5.93 ×10^2%"),
    ("C=C(C)C#N", "Nitrilase isolated from Acinetobacter sp. AK 226 strain", "68.4 ×10^2%"),
    ("N#CC(Br)CBr (centres unmarked)", "Nitrilase isolated from Acinetobacter sp. AK 226 strain", "90.3 ×10^2%"),
    ("C=CC#N", "Nitrilase isolated from Acinetobacter sp. AK 226 strain", "144 ×10^2%"),
    ("N#Cc1ccccc1F", "Nitrilase isolated from Acinetobacter sp. AK 226 strain", "50.4 ×10^2%"),
    ("N#CCCCC#N", "Nitrilase isolated from Acinetobacter sp. AK 226 strain", "50.9 ×10^2%"),
    ("Cc1ccccc1C#N", "Nitrilase isolated from Acinetobacter sp. AK 226 strain", "0.743 ×10^2%"),
]
